Measured Km accompanies every entry in the list below.
System: Escherichia coli
method: Activity of Escherichia coli beta-lactamase VIM-1 by spectrophotometry

# compoundStructure, unitTag, Km
data = [
    ("CC1(C)S[C@@H]2[C@H](NC(=O)[C@H](NC(=O)N3CCNC3=O)c3ccccc3)C(=O)N2[C@H]1C(=O)O", "µM", 120),
    ("CC1(C)S[C@@H]2[C@H](NC(=O)Cc3ccccc3)C(=O)N2[C@H]1C(=O)O", "µM", 840),
    ("C[C@@H](O)[C@H]1C(=O)N2C(C(=O)O)=C(S[C@@H]3CN[C@H](C(=O)N(C)C)C3)[C@H](C)[C@H]12", "µM", 50),
    ("CC1(C)S[C@@H]2[C@H](NC(=O)[C@H](N)c3ccccc3)C(=O)N2[C@H]1C(=O)O", "µM", 920),
]
